Assay: Stability of peptides in simulated intestinal fluid (pH 7.5)
Format: in vitro ADME
Details: simulated gi fluid, pH 7.5
Where a SMILES comes first, the peptide text is derived from it. [ ]: non-standard residue; d: D form. Arg(NO2) = N=C(NCCC[C@H](N)C(=O)O)N[N+](=O)[O-]; αMePhe(2-F) = C[C@](N)(Cc1ccccc1F)C(=O)O; Nle = CCCC[C@H](N)C(=O)O; Orn = NCCC[C@H](N)C(=O)O; Aib = CC(C)(N)C(=O)O
Property Measured: half-life (min)
Answer in min, number only, no unit symbol.

Molecule	Property Measured	Uom	Data Value
CCCCC(C)(NC(=O)[C@H](CC(C)C)NC(=O)[C@H](CCC(N)=O)NC(=O)[C@@H](NC(=O)[C@H](CCC(=O)O)NC(=O)C(C)(C)NC(=O)[C@@H](NC(=O)C1(NC(=O)[C@@H](N)C(C)C)CCCC1)C(C)C)[C@@H](C)CC)C(=O)N[C@@H](Cc1c[nH]cn1)C(=O)N[C@@H](CCC(N)=O)C(=O)N[C@@H](CCCCNC(=N)N)C(=O)N[C@@H](C)C(=O)N[C@@H](CCCCNC(=N)N)C(=O)NC(Cc1ccc(-c2ccc(OC)cc2CC)cc1)C(=O)NC(C)(CCCc1ccccc1)C(N)=O (single isomer, unassigned)	half-life	min	30

With those in mind, consider the next molecule.
Asked: Reported half-life, molecule CCCC[C@H](NC(=O)[C@](C)(Cc1ccccc1F)NC(=O)[C@H](CCC(N)=O)NC(=O)[C@@H](NC(=O)[C@H](CCC(=O)O)NC(=O)C(C)(C)NC(=O)[C@@H](NC(=O)C(C)(C)N)C(C)C)[C@@H](C)CC)C(=O)N[C@@H](Cc1c[nH]cn1)C(=O)N[C@@H](CCC(N)=O)C(=O)N[C@@H](CCCN)C(=O)N[C@@H](C)C(=O)N[C@@H](CCCNC(=N)N[N+](=O)[O-])C(=O)N[C@@](C)(Cc1ccccc1F)C(N)=O [Seq. ID. 329] (H-[Aib]V[Aib]EIQ[αMePhe(2-F)][Nle]HQ[Orn]A[Arg(NO2)][αMePhe(2-F)]-NH2) : ____
Given back: 30

###

Assay: Stability of peptides in simulated gastric fluid (pH 1.5; HCl, NaCl and Pepsin)
Format: in vitro ADME
Conditions: simulated gastric fluid, 24 h, 2 μM, pH 1.5
Where a SMILES comes first, the peptide text is derived from it. [ ]: non-standard residue; d: D form. ξ: configuration not given here. ξαMePhe(2-F) = CC(N)(Cc1ccccc1F)C(=O)O; hArg = N=C(N)NCCCC[C@H](N)C(=O)O; ξαMeF = CC(N)(Cc1ccccc1)C(=O)O; Nle = CCCC[C@H](N)C(=O)O; ξαMeP = CC1(C(=O)O)CCCN1; Aib = CC(C)(N)C(=O)O
In this section, each of the molecules is paired with its reported % degradation of peptides in 24 h when incubated with simulated gastric fluid.
Answer in %, number only, no unit symbol.

Molecule	Data Value
CCCC[C@H](NC(=O)C(C)(Cc1ccccc1F)NC(=O)[C@H](CCC(N)=O)NC(=O)[C@@H](NC(=O)[C@H](CCC(=O)O)NC(=O)C(C)(C)NC(=O)[C@@H](NC(=O)C(C)(C)N)C(C)C)[C@@H](C)CC)C(=O)N[C@@H](Cc1c[nH]cn1)C(=O)N[C@@H](CCC(N)=O)C(=O)N[C@@H](CCCCNC(=N)N)C(=O)N1CCCC1(C)C(=O)N[C@@H](CCCCN)C(=O)NC(C)(Cc1ccccc1)C(N)=O (some centres unmarked) [Seq. ID. 25] (H-[Aib]V[Aib]EIQ[ξαMePhe(2-F)][Nle]HQ[hArg][ξαMeP]K[ξαMeF]-NH2)	12

With those in mind, consider the next molecule.
Asked: Reported % degradation of peptides in 24 h when incubated with simulated gastric fluid, molecule CCCC[C@H](NC(=O)C(C)(Cc1ccccc1F)NC(=O)[C@H](CCC(N)=O)NC(=O)[C@@H](NC(=O)[C@H](CCC(=O)O)NC(=O)C(C)(C)NC(=O)[C@@H](NC(=O)C(C)(C)N)C(C)C)[C@@H](C)CC)C(=O)N[C@@H](Cc1c[nH]cn1)C(=O)N[C@@H](CCC(N)=O)C(=O)N[C@@H](CCCCNC(=N)N)C(=O)N1CCCC1(C)C(=O)N[C@@H](CCCCN)C(=O)NC(C)(Cc1ccccc1F)C(N)=O (some centres unmarked) [Seq. ID. 56] (H-[Aib]V[Aib]EIQ[ξαMePhe(2-F)][Nle]HQ[hArg][ξαMeP]K[ξαMePhe(2-F)]-NH2) : ____
Given back: 00

###

Experiment: Stability of peptides in human liver microsomes
Assay type: in vitro ADME
Settings: human, microsomes
Where a SMILES comes first, the peptide text is derived from it. [ ]: non-standard residue; d: D form. ξ: configuration not given here. Arg(NO2) = N=C(NCCC[C@H](N)C(=O)O)N[N+](=O)[O-]; αMePhe(2,6-F2) = C[C@](N)(Cc1c(F)cccc1F)C(=O)O; ξαMePhe(2,6-F2) = CC(N)(Cc1c(F)cccc1F)C(=O)O; ξαMePhe(2-F) = CC(N)(Cc1ccccc1F)C(=O)O; hCit = NC(=O)NCCCC[C@H](N)C(=O)O; Cit = NC(=O)NCCC[C@H](N)C(=O)O; Nle = CCCC[C@H](N)C(=O)O; Orn = NCCC[C@H](N)C(=O)O; Ac5c = NC1(C(=O)O)CCCC1; Aib = CC(C)(N)C(=O)O
Property Measured: half-life (h)
Answer in h, number only, no unit symbol.

Reference set, count: 3
Compound	Uom	Data Value
CCCC[C@H](NC(=O)[C@](C)(Cc1c(F)cccc1F)NC(=O)[C@H](CCC(N)=O)NC(=O)[C@@H](NC(=O)[C@H](CCC(=O)O)NC(=O)C(C)(C)NC(=O)[C@@H](NC(=O)C(C)(C)N)C(C)C)[C@@H](C)CC)C(=O)N[C@@H](Cc1c[nH]cn1)C(=O)N[C@@H](CCC(N)=O)C(=O)NC(C)(C)C(=O)NC(C)(C)C(=O)N[C@@H](CCCNC(N)=O)C(=O)N[C@@](C)(Cc1c(F)cccc1F)C(N)=O [Seq. ID. 550] (H-[Aib]V[Aib]EIQ[αMePhe(2,6-F2)][Nle]HQ[Aib][Aib][Cit][αMePhe(2,6-F2)]-NH2)	h	1
CCCC[C@H](NC(=O)C(C)(Cc1ccccc1F)NC(=O)[C@H](CCC(N)=O)NC(=O)[C@@H](NC(=O)[C@H](CCC(=O)O)NC(=O)C(C)(C)NC(=O)[C@@H](NC(=O)C1(N)CCCC1)C(C)C)[C@@H](C)CC)C(=O)N[C@@H](Cc1c[nH]cn1)C(=O)N[C@@H](CCC(N)=O)C(=O)N[C@@H](CCCCNC(N)=O)C(=O)NC(C)(C)C(=O)N[C@@H](CCCNC(=N)N[N+](=O)[O-])C(=O)NC(C)(Cc1ccccc1F)C(N)=O (stereo partly shown) [Seq. ID. 460] (H-[Ac5c]V[Aib]EIQ[ξαMePhe(2-F)][Nle]HQ[hCit][Aib][Arg(NO2)][ξαMePhe(2-F)]-NH2)	h	1
CCCC[C@H](NC(=O)C(C)(Cc1ccccc1F)NC(=O)[C@H](CCC(N)=O)NC(=O)[C@@H](NC(=O)[C@H](CCC(=O)O)NC(=O)C(C)(C)NC(=O)[C@@H](NC(=O)C(C)(C)N)C(C)C)[C@@H](C)CC)C(=O)N[C@@H](Cc1c[nH]cn1)C(=O)N[C@@H](CCC(N)=O)C(=O)N[C@@H](CCCN)C(=O)NC(C)(C)C(=O)N[C@@H](CCCNC(N)=O)C(=O)NC(C)(Cc1c(F)cccc1F)C(N)=O (stereo partly shown) [Seq. ID. 290] (H-[Aib]V[Aib]EIQ[ξαMePhe(2-F)][Nle]HQ[Orn][Aib][Cit][ξαMePhe(2,6-F2)]-NH2)	h	0.5

With those in mind, consider the next compound.
Asked: Reported half-life, compound CCCC[C@H](NC(=O)C(C)(Cc1ccccc1F)NC(=O)[C@H](CCC(N)=O)NC(=O)[C@@H](NC(=O)[C@H](CCC(=O)O)NC(=O)C(C)(C)NC(=O)[C@@H](NC(=O)C1(N)CCCC1)C(C)C)[C@@H](C)CC)C(=O)N[C@@H](Cc1c[nH]cn1)C(=O)N[C@@H](CCC(N)=O)C(=O)N[C@@H](CCCNC(N)=O)C(=O)NC(C)(C)C(=O)NC(C)(Cc1c(F)cccc1F)C(=O)NC(C)(Cc1ccccc1F)C(N)=O (stereo partly shown) [Seq. ID. 380] (H-[Ac5c]V[Aib]EIQ[ξαMePhe(2-F)][Nle]HQ[Cit][Aib][ξαMePhe(2,6-F2)][ξαMePhe(2-F)]-NH2) : ____
Given back: 2

Where these numbers come from: patent US8383581B2
